Give measured IC50 for each item. Keep answers brief.
- test-target: Human recombinant PDE3A (hPDE3A) (Homo sapiens, UniProt Q14432)
- Construct: purchased Scottish Biomedical; host or cells: Sf9 insect cells
- Sequence (Q14432 whole entry): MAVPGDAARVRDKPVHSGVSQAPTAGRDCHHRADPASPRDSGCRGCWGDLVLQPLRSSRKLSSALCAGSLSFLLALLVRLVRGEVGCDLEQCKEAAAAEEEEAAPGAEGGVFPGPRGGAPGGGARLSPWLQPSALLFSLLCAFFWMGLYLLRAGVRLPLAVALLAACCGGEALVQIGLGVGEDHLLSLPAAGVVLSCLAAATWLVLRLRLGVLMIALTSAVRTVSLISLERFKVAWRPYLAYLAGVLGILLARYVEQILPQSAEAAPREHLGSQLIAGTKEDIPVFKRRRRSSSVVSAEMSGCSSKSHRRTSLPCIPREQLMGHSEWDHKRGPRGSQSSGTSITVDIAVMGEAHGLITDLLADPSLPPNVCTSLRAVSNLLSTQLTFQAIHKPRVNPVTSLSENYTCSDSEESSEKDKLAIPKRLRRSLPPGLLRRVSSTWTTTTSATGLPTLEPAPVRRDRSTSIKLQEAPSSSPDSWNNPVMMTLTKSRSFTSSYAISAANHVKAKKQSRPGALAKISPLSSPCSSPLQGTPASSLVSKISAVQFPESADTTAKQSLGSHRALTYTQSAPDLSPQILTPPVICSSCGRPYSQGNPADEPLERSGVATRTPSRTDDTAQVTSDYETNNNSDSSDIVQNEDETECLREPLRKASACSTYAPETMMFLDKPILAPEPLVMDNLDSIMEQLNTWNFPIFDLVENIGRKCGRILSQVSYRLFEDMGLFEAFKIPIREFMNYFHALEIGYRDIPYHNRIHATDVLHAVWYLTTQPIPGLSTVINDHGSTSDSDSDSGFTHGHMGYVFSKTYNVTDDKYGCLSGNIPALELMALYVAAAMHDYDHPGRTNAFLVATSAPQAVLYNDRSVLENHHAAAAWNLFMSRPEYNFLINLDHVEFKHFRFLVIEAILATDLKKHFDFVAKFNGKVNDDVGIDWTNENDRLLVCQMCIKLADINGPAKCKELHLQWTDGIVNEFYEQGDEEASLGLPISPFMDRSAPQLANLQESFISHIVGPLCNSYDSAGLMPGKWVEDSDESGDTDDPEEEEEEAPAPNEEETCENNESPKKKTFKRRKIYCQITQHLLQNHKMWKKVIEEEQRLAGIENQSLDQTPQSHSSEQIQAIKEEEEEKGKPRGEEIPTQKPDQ
- assay-remarks: In vitro assay PDE3A (SPA, 3H-cAMP hydrolysis);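 also: the method names PDE3A and the table heading PDE3B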
- Assay type: biochemical
- experimental-conditions: hPDE3B pIC50; read-out: pIC50 (converted)
Numbers only, in nM.

# annotated cases, reported IC50 shown
{"columns": ["item-smiles", "property", "units-symbol", "observed"],
 "data": [
  ["Cc1cc(C(=O)N2CC[C@@H](C)[C@H](c3cc(C(F)F)nc4ncnn34)C2)cc(C)c1F", "IC50", "nM", 1950],
  ["C[C@@H]1CCN(C(=O)c2ccc(F)c(F)c2F)C[C@H]1c1cc(C(F)F)nc2ncnn12", "IC50", "nM", 5890]
]}

# return IC50 for each item in the list
1. O=C(c1ccc(F)c(OC(F)F)c1)N1[C@H]2CC[C@H](c3cc(C(F)F)nc4ncnn34)[C@@H]1CC2
2. Cc1cc(C(=O)N2CC[C@@H](C)[C@H](c3cc(C(F)F)nc4ncnn34)C2)cnc1C

A)
1. 8320
2. 5750
